system: UniProt:P28335
Sequence (P28335 33-458): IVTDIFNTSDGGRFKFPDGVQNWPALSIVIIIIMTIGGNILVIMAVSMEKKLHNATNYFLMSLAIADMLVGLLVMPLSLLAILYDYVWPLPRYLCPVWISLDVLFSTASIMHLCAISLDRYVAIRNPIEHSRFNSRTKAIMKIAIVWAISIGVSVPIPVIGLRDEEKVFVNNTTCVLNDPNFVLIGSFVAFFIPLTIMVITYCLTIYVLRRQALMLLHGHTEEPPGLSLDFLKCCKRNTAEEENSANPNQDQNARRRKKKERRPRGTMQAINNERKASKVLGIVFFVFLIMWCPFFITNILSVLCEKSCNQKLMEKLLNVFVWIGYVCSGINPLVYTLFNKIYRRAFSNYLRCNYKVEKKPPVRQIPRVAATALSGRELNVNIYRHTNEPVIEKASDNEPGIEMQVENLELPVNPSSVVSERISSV
assay_overview: Inhibition of 5-HT-stimulated IP-1 formation
pIC50: −log10 of the molar value.
Collected pIC50 values appear next to each entry.

GET /values?readout=pIC50&item= CNC(C)C(=O)c1ccc(C)cc1 (stereo not shown) [Mephedrone, 4-methyl-N-methylcathinone]
< 3.36

GET /values?readout=pIC50&item= Cc1cc2c(cc1Cl)N(C(=O)Nc1ccc(Oc3cccnc3C)nc1)CC2 [SB242084, reference compound]
9.55

GET /values?readout=pIC50&item= CNC(C)C(=O)c1ccc2c(c1)OCO2 (stereo not shown) [Methylone, 3,4-methylenedioxy-N-methylcathinone]
< 3.00

GET /values?readout=pIC50&item= CN[C@@H](C)Cc1ccccc1 [METH, (+)methamphetamine, reference compound]
< 3.00
